Target: T1, human RAGE-Fc fusion protein (human, UniProt Q15109 23-344)
T1 construct: also called hRAGE-Fc; huRAGE-Fc; not shown: Fc domain of human IgG
Experiment: competition ELISA on human RAGE-Fc; labelled competitor not named
endpoint-name: ED50 (nM)
Kindly answer with a numeric value in nM, unit omitted.

INSERT INTO measurements (binder, result) VALUES
  ('V2.1 (R40A) / v3.0 (antibody, V domains shown, XT-H2 construct expressed in COS cells; also called XT-H2 hVH V2.1 + hVL V3.0) VH: QVQLVQSGAEVKKPGASVKVSCKASGYTFTTYWMHWVRQAPGQGLYWIGYINPSTGYTEYNQKFKDRVTMTADTSISTAYMELSRLRSDDTAVYYCARWAGYTIDYWGQGTLVTVSS VL: DIVMTQSPDSLAVSLGERATINCKSTKSLLNSDGFTYLDWYQQKPGQPPKLLIYLVSDRFSGVPDRFSGSGSGTDFTLTISSLQAEDVAVYYCFQSNSLPLTFGGGTKVEIK', 5);

Kindly review the next binder as well.
Query block: Record request: ED50 value, item V2.2 (Y46E) / mVL (antibody, V domains shown, XT-H2 construct expressed in COS cells; also called XT-H2 hVH V2.2 + mVL) VH: QVQLVQSGAEVKKPGASVKVSCKASGYTFTTYWMHWVRQRPGQGLEWIGYINPSTGYTEYNQKFKDRVTMTADTSISTAYMELSRLRSDDTAVYYCARWAGYTIDYWGQGTLVTVSS VL: DVVLTQTPLSLPVNIGDQASISCKSTKSLLNSDGFTYLDWYLQKPGQSPQLLIYLVSDRFSGVPDRFSGSGSGTDFTLTISRVEAEDLGVYYCFQSNSLPLTFGSGTKLEIK
Result block: 6
